# Measured target: Cellular tumor antigen p53 (Homo sapiens)
# Experimental details: TOX21_p53_BLA_p4_ratio: Tox21 HCT-116 p53 Agonism Beta-lactamase Assay, Ratio, Phase 4 (AID 2283601)
Records with an inconclusive call do not appear. Active and inactive are the calls of the source. How the source made its calls: active means hit-call score of the fitted dose curve at least 0.9, where 1 is the maximum; inconclusive means response in the unintended direction; inactive means score below 0.9.
Entry note: the call must match one of Y for active, N for inactive

Below, 6 compounds whose answers are already recorded.
| Compound | Qualitative label |
| --- | --- |
| CCCCOCCOC(C)=O | N |
| Cc1ccccc1N | N |
| ClC1(Cl)C2(Cl)C3(Cl)C4(Cl)C(Cl)(Cl)C5(Cl)C3(Cl)C1(Cl)C5(Cl)C24Cl (stereo unspecified) | N |
| CCOC(=O)CP(=O)(OCC)OCC | N |
| CCOP(OCC)OCC | N |
| O=C/C=C/c1ccccc1 | N |

Query string: Hi, do you know how CC(C#N)CCC#N (stereo unspecified) came out in this test?
Result string: N

Query string: Hi, do you know how COc1ccc(C(O)(c2cncnc2)C2CC2)cc1 (stereo unspecified) came out in this test?
Result string: N

Query string: Hi, do you know how C(=NC1CCCCC1)=NC1CCCCC1 came out in this test?
Result string: N

Query string: Hi, do you know how O=[N+]([O-])c1c(Cl)c(Cl)cc(Cl)c1Cl came out in this test?
Result string: N

Query string: Hi, do you know how ClCc1ccccn1 came out in this test?
Result string: N

Query string: Hi, do you know how ClCCBr came out in this test?
Result string: N

Query string: Hi, do you know how O=C(NCO)NCO came out in this test?
Result string: N

Query string: Hi, do you know how O=[N+]([O-])c1ccc(O)c([N+](=O)[O-])c1 came out in this test?
Result string: N

Query string: Hi, do you know how COc1ccc(C=O)cc1OC came out in this test?
Result string: N

Query string: Hi, do you know how Nc1cccc2ccccc12 came out in this test?
Result string: N

Query string: Hi, do you know how CCC(C)(C)c1ccc(O)c(C(C)(C)CC)c1 came out in this test?
Result string: Y

Query string: Hi, do you know how Cc1ccccc1C(=O)Nc1cccc(OC(C)C)c1 came out in this test?
Result string: N

Query string: Hi, do you know how Cl/C=C/Cl came out in this test?
Result string: N

Query string: Hi, do you know how ClC1=C(Cl)[C@]2(Cl)[C@H]3[C@H]([C@H]4C=C[C@H]3C4)[C@@]1(Cl)C2(Cl)Cl came out in this test?
Result string: N

Query string: Hi, do you know how CNC(=O)O/N=C/C(C)(C)S(C)=O (stereo unspecified) came out in this test?
Result string: N

Query string: Hi, do you know how CCCCC(CC)CO[N+](=O)[O-] (stereo unspecified) came out in this test?
Result string: N

Query string: Hi, do you know how CCOC(=O)/C=C(C)/C=C/C[C@@H](C)CCCC(C)C came out in this test?
Result string: N

Query string: Hi, do you know how C=CC#N came out in this test?
Result string: N

Query string: Hi, do you know how O=C(Nc1ccc2[nH]ccc2c1)c1cc2cc(F)ccc2n1Cc1cccc(F)c1 came out in this test?
Result string: Y

Query string: Hi, do you know how CCOP(=S)(OCC)SCSP(=S)(OCC)OCC came out in this test?
Result string: N

Query string: Hi, do you know how Oc1ccc(-c2ccccc2)cc1 came out in this test?
Result string: N

Query string: Hi, do you know how CC(=O)C(Cl)C(=O)N(C)C (stereo unspecified) came out in this test?
Result string: N

Query string: Hi, do you know how COc1cc(OC)nc(NC(=O)NS(=O)(=O)c2ncccc2C(=O)N(C)C)n1 came out in this test?
Result string: N

Query string: Hi, do you know how CC(=O)c1cc(C(C)(C)C)cc2c1CCC2(C)C came out in this test?
Result string: N

Query string: Hi, do you know how CCC[CH2][Sn]([CH2]CCC)([CH2]CCC)[O]C(=O)c1ccccc1 came out in this test?
Result string: Y

Query string: Hi, do you know how COP(=S)(OC)Oc1c(Cl)cc(C)cc1Cl came out in this test?
Result string: N

Query string: Hi, do you know how C1CCC(NC2CCCCC2)CC1 came out in this test?
Result string: N

Query string: Hi, do you know how CCCCCCCCCCCCCCCC[n+]1ccccc1 came out in this test?
Result string: Y

Query string: Hi, do you know how COP(=S)(OC)Oc1ccc(Sc2ccc(OP(=S)(OC)OC)cc2)cc1 came out in this test?
Result string: N
